- EXPERIMENTAL PROTOCOL: NCI Yeast Anticancer Drug Screen. Data for the mlh1 rad18 strain (AID 175)
- EXPERIMENTAL CONTEXT: S. cerevisiae mlh1 rad18 strain growth inhibition; at 50.0 µM
This is part of a sample that, as a whole, favours compounds with a hit. Of some 79,000 tested, about 15% had one in any assay. Calls of active or inactive are those of the source. Cut-off read from the data, not from the text of the source: active = growth inhibition above about 70%; inactive = the rest.
Labels: yes (active), no (inactive)

COMPOUND	LABEL VALUE
O=C(Cc1csc2[n+]1C(=O)/C(=C/c1ccc(Cl)cc1)S2)Nc1ccccc1	yes
CCN(CC)CCNc1ccc([N+](=O)[O-])c2nc3ccc(OC)cc3c(N)c12	no
COc1ccc(N=C2C(=O)Nc3ccc(Br)cc32)cc1	no
CC(C)OC(=O)Oc1ccccc1OC(=O)OC(C)C	no
CNC1C(OC2C(OC3C(O)C(O)C(N=C(N)N)C(O)C3N=C(N)N)OC(C)C2(O)CO)OC(CO)C(O)C1O (stereo not given)	yes
c1ccc2c(c1)sc1cc3ccncc3cc12	yes
Nc1ncncc1C(C1=C(O)COC1=O)C1=C(O)COC1=O	no
O=C(c1cc(Br)ccc1O)c1cc(Br)ccc1O	yes
CC/C(=C(\c1ccccc1)c1ccc(OCCN(C)C)cc1)c1ccccc1	no
O=C1C(=O)c2ccccc2C=C1[N+](=O)[O-]	no
COc1ccc(/C=C/C(=O)C(C)(C)Br)cc1	yes
Oc1ccc(NCn2c(=S)sc3ccccc32)cc1	no
[O-][n+]1c2ccc(O)cc2nc2ccc(Cl)cc21	yes
Cn1c(=O)c2ccccc2c2ccccc21	yes
O=C1c2ccccc2-c2n[nH]c3cccc1c23	yes

###

- EXPERIMENTAL PROTOCOL: NCI Yeast Anticancer Drug Screen. Data for the rad50EPP+ strain (AID 151);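 note: 0% = growth of vehicle-treated control cultures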
- EXPERIMENTAL CONTEXT: S. cerevisiae rad50 mutant strain, at 1.2 µM, stronger effect = higher value
Compounds without any hit were thinned out: in the full panel of roughly 79,000, 15% have a hit.
Definition: the class of an entry is the range in bottom bin (below -10%), middle bin (-10% to below 20%), top bin (20% or more) that contains its growth inhibition.

MOLECULE	LABEL VALUE
CO[C@H]1C[C@](C)(O)Cc2cc3c(c(O)c21)C(=O)c1c(O)cc2c(c1C3=O)O[C@@H]1O[C@@]2(C)[C@H](O)[C@@H](N(C)C)[C@@H]1O	bottom bin
COC(=O)CCNc1c2ccccc2nc2cccc([N+](=O)[O-])c12	middle bin
Cc1cc(CO)c(O)c(CNCc2cc(C)cc(CO)c2O)c1	bottom bin
CN(C)CCOc1ccc2c(c1)C/C(=C/c1ncc([N+](=O)[O-])n1C)C2=O	top bin
CCOC(=O)c1cnc2cc(C(F)(F)F)ccc2c1N=[N+]=[N-]	middle bin
Cc1ccc(S(=O)(=O)NCCSS(=O)(=O)c2ccc(C)cc2)cc1	bottom bin
CC[C@@]1(O)C(=O)OCc2c1cc1n(c2=O)Cc2cc3c(CN(C)C)c(O)ccc3nc2-1	top bin
Brc1ccc(-c2cc3c(cc2C2SCCS2)OCO3)cc1	middle bin
OC1CCCc2c1cc1ccc3cccc4ccc2c1c34 (centres undefined)	middle bin

###

- EXPERIMENTAL PROTOCOL: NCI Yeast Anticancer Drug Screen. Data for the wt1 strain (AID 149);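 note: 0% = growth of vehicle-treated wt1 cultures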
- EXPERIMENTAL CONTEXT: S. cerevisiae wt1 strain (SPY 50644) growth inhibition; at 33.0 µM; stronger effect = higher value
This is part of a sample that, as a whole, favours compounds with a hit. Of some 79,000 tested, about 15% had one in any assay. Activity calls are given as the source filed them. Cut-off read from the data, not from the text of the source: active = growth inhibition above about 70%; inactive = the rest.

COMPOUND	growth inhibition
CCOC(=O)c1cnc2cc(C(F)(F)F)ccc2c1N=[N+]=[N-]	37% (inactive)
CC[C@@]1(O)C(=O)OCc2c1cc1n(c2=O)Cc2cc3c(CN(C)C)c(O)ccc3nc2-1	-2% (inactive)
CSC(=S)Nc1cccc(C)n1	-15% (inactive)
O=C(OCCN1CCCCCC1)C(c1ccsc1)C1CCCCC1 (stereo not drawn)	19% (inactive)
CCC(C)COC(=O)c1ccc(N=Cc2ccc(C=Nc3ccc(C(=O)OCC(C)CC)cc3)cc2)cc1 (stereo not drawn)	-1% (inactive)
CCOC(=O)C1=C(C(=O)c2ccccc2)C(c2ccccc2[N+](=O)[O-])C(C(=O)c2ccccc2)=C(C(=O)OCC)N1	-1% (inactive)
CC(=O)Oc1ccc2c(c1)Cc1cc(N=C3C=CC(=O)O3)ccc1-2	99% (active)
CCCC/C=C/C(CC)(C(=O)OCC)C(=O)OCC	-7% (inactive)
COc1ccccc1N=NC(C(=O)c1ccccc1)C(=O)c1ccccc1	96% (active)
NNC(=O)CCc1ccc2ccc3ccccc3c2c1	3% (inactive)
CCN(CC)CCN1C(=O)c2cccc3cc(OC)cc(c23)C1=O	-7% (inactive)
OC(COc1cccc2ccccc12)CN1CCOCC1 (stereo not drawn)	31% (inactive)
COP(=O)(OC)/C(=C\C1=CN(C(c2ccccc2)(c2ccccc2)c2ccccc2)CN1)NC=O	54% (inactive)
C[Si](C)(C)CNC(=O)OCc1ccccc1	-4% (inactive)
O=Nc1cccnc1N=O	99% (active)
CCCCCCCCCCCC(=O)N(C)C	-14% (inactive)
COc1ccc(/C=C/C(=O)C(C)(C)Br)cc1	19% (inactive)
CCCCCCCC1(N=[N+]=[N-])C(=O)c2ccccc2N(C)C1=O (stereo not drawn)	59% (inactive)
COc1ccc(/C=C2\SC(=S)N(/C=C/c3nc4ccccc4[nH]c3=O)C2=O)cc1OC	40% (inactive)
O=CC=C(c1ccccc1)c1ccccc1	10% (inactive)
O=[N+]([O-])c1cccc2nc3ccccc3c(NCCCN3CCOCC3)c12	97% (active)
N#C/C(=C\c1cccc(OCc2ccccc2)c1)c1ccc([N+](=O)[O-])cc1	-28% (inactive)
CCCN(CCC)CC(O)c1cc(-c2ccc(Cl)cc2)nc2c(C)c(Cl)ccc12 (stereo not drawn)	98% (active)
CC(=O)Oc1cc(-c2cc(OC(C)=O)c(OC(C)=O)c3ccccc23)c2ccccc2c1OC(C)=O	12% (inactive)
CCC/C(Cl)=N\OC(=O)Nc1cccc(C(F)(F)F)c1	2% (inactive)
CCOC(=O)c1cnc2c(C(F)(F)F)cccc2c1N=[N+]=[N-]	37% (inactive)
CCCCOC(=O)N[C@H]1CCc2cc(OC)c(OC)c(OC)c2-c2ccc(SC)c(=O)cc21	3% (inactive)
CC(=O)SCCC[Si](C)(C)CCCSC(C)=O	4% (inactive)
CN(CCc1ccccn1)c1ccc2c(c1)Cc1ccccc1-2	5% (inactive)
O=CNc1ccc2c(c1)C(=O)c1ccccc1-2	27% (inactive)
Cc1ccc2ccc3cccc4ccc1c2c34	2% (inactive)
O=[N+]([O-])c1ccc([N+]2=NC(c3ccccc3)=NN(c3ccccc3)C2)cc1	3% (inactive)
CSC1=NNC(SC)=NN1	51% (inactive)
O=C(NCCCNCCCNC(=O)c1cc(-c2ccccc2)nc2ccccc12)c1cc(-c2ccccc2)nc2ccccc12	-2% (inactive)
CC1(C)[C@@H]2CC[C@]1(C)[C@H](OC(=O)CSC#N)C2	61% (inactive)
CCOC(=O)c1cc([N+](=O)[O-])cc([N+](=O)[O-])c1Sc1ncnc2nc[nH]c12	50% (inactive)
O=[N+]([O-])c1cccc2nccc(NCCCO)c12	10% (inactive)
O=[N+]([O-])c1cc(CCl)ccc1CCl	93% (active)
CN1CCc2ccccc2C1Cc1ccccc1NC(=O)c1sc2ccccc2c1Cl (stereo not drawn)	22% (inactive)
CC/C(=C(\c1ccccc1)c1ccc(OCCN(C)C)cc1)c1ccccc1	98% (active)
NC(N)=N/N=C\c1c2ccccc2cc2ccccc12	-27% (inactive)
S=C(Nc1ccc(Cl)cc1)SC1CCCCC1	98% (active)
CC(=O)Nc1ccc(SC(C)=O)cc1	43% (inactive)

###

- EXPERIMENTAL PROTOCOL: NCI Yeast Anticancer Drug Screen. Data for the mlh1 rad18 strain (AID 175)
- EXPERIMENTAL CONTEXT: S. cerevisiae mlh1 rad18 strain growth inhibition; at 50.0 µM
- Method: Growth inhibition of yeast strains with defined genetic alterations is measured as a screen for potential anti-cancer activity. Selected strains with alterations in DNA damage repair or cell cycle control were exposed to compounds and growth inhibition was measured relative to vehicle treated controls. The strain used in this assay is mlh1 rad18
This is part of a sample that, as a whole, favours compounds with a hit. Of some 79,000 tested, about 15% had one in any assay. Activity calls are given as the source filed them. No stated cut-off is given here; in the data, active means growth inhibition above about 70%; inactive means the rest.
Labels: active, inactive

COMPOUND	LABEL VALUE
COc1cc2c3c(cccc3c1)C(=O)N(CCN(C)C)C2=O	inactive
CNC(=O)OCc1c(COC(=O)NC)c(-c2ccc(-c3ccccc3)cc2)n(C)c1C	inactive
O=C(O)C1CCCCC1c1c2ccc(=O)c(O)c-2oc2c(O)c(O)ccc12 (stereo not given)	active
Cc1ccc(S(=O)(=O)NC(=O)NC2=NC(C)(C)N(c3ccc(Cl)c(Cl)c3)C(N)=N2)cc1	inactive
Cc1ccc(S/N=C\c2ccccc2O)cc1	active
COC(=O)c1cc(-c2ccc(C)cc2)[nH]c(=O)c1C#N	active
O=C(NCCCNCCCNC(=O)c1cc(-c2ccccc2)nc2ccccc12)c1cc(-c2ccccc2)nc2ccccc12	active
CC(O)C(O)C(O)C(/C=N\Nc1ccccc1)=N/Nc1ccccc1 (stereo not given)	active
Cc1ccc(C2C(Cl)C(=O)N2n2cnc3ccccc3c2=O)cc1 (stereo not given)	inactive
CN=C(N)N/N=C/c1ccc2c(c1)Cc1ccccc1-2	active
O=C(Nc1ccccc1)C(=O)C(C(=O)c1ccccc1)C(c1ccccc1)c1ccccc1 (stereo not given)	active
CN1c2ccc(Cl)cc2C(=O)NC1c1ccc([N+](=O)[O-])s1 (stereo not given)	active
CC(C)C1=CC2=C[C@H](O)[C@H]3C(C)(C)CCC[C@]3(C)C2=C(O)C1=O	active
O=C1c2ccccc2C(=O)c2c(NC3CCCCC3)ccc(Nc3ccc(S(=O)(=O)O)cc3)c21	active
Cc1ccc2ccc(O)cc2c1	inactive
